target: PPARγ-RXRα heterodimer (Homo sapiens); experiment: PPARγ-RXRα heterodimer ligand activity (luciferase reporter); conditions: PPARγ:RXRα:4ERPP/CHO-K1 cells, 18-24 hr, concentration showing 50% of the maximum induction rate
Sequence (P37231 whole entry): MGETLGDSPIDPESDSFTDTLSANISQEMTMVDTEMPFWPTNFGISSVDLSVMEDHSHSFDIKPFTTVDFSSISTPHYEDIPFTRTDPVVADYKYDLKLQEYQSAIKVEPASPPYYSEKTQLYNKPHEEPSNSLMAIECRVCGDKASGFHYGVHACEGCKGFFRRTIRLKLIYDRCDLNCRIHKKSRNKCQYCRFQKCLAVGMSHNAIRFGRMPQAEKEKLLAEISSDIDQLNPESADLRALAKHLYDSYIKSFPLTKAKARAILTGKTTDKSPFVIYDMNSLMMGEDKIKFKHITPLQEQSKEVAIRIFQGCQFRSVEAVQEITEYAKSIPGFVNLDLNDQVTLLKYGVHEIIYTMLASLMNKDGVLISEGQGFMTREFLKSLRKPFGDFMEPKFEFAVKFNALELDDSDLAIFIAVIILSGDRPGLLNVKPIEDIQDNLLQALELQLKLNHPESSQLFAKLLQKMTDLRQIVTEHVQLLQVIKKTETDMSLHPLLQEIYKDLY
Sequence (P19793 whole entry partner): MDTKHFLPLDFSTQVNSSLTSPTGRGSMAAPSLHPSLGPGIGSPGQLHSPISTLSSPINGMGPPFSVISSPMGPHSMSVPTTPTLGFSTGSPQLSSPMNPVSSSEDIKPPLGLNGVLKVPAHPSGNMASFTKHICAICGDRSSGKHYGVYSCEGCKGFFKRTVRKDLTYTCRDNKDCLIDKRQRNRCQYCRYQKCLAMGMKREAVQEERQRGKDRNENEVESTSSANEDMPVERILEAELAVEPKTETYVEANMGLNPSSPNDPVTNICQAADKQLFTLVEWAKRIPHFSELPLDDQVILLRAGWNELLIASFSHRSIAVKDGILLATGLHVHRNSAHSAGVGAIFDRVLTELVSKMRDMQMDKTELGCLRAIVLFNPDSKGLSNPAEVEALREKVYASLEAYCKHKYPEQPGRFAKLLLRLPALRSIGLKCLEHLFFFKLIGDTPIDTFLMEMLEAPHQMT
Recorded Metric: EC50

Give the measured EC50 for `CC(C)Oc1ccc(CCCOc2ncccc2CC(=O)O)c(Oc2ncc(Cl)cc2Cl)c1`
3.3 nM

Give the measured EC50 for `CC(C)Oc1cc(CCCOc2nn(Cc3ccccc3)cc2CC(=O)O)n(Cc2ccc(Cl)cc2OC(C)C)n1`
39 nM

Give the measured EC50 for `CCCOc1cc(CCCOc2c(CC(=O)O)cccc2OC)n(Cc2ccc(Cl)cc2Cl)n1`
1.4 nM
